Assay: Normal cell proliferation, SRB assay
Assay type: cell-based, human
Conditions: human, CC50(μM)
RECORDED METRIC: CC50 at 48 h

Solved entries (count: 3):
[
  {
    "COMPOUND": "CC1(C)C2CCC1(C)C(NC(=O)c1ccnc(Nc3cccc(NCCCN4CCOCC4)c3)n1)C2 (stereo not shown)",
    "RECORDED METRIC": "CC50 at 48 h",
    "ASSAY RESULT": "> 100 µM"
  },
  {
    "COMPOUND": "CC(C)N1CCN(c2ccc(Nc3nccc(C(=O)NC4CC5CCC4(C)C5(C)C)n3)cc2)CC1 (stereo not shown)",
    "RECORDED METRIC": "CC50 at 48 h",
    "ASSAY RESULT": "23.5 µM"
  },
  {
    "COMPOUND": "CC1(C)C2CCC1(C)C(NC(=O)c1ccnc(Nc3cccc(NCC#N)c3)n1)C2 (stereo not shown)",
    "RECORDED METRIC": "CC50 at 48 h",
    "ASSAY RESULT": "62.5 µM"
  }
]

Shifting focus to the compound that follows.
Problem: Need CC50 at 48 h of CN(C)CCNc1ccc(Nc2nccc(C(=O)NC3CC4CCC3(C)C4(C)C)n2)cc1 (stereo not shown) , thanks.
Result: > 100 µM
